- protocolDetails: Cell Viability - LYMP2-012 (AID 982);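 also: cellular ATP by luciferase luminescence where a drop means cytotoxicity; cells exposed to compound for one day before reading; nearly all actives have a fitted effect of over 55% in size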
- setupConditions: LYMP2-012 lymphoblastoid cell viability qHTS; series mostly up to 92.2 µM
Records with an inconclusive call do not appear. Active and inactive are the calls of the source. Calls follow the shape of the dose curve; as a rule, active = well fitted cell-killing curve with a large enough effect; inconclusive = small, poorly fitted or top-dose-only effect; inactive = flat fitted curve, though single readings scatter.
Outcomes: active, inactive

O=C(OCC(COC(=O)c1ccccc1)(COC(=O)c1ccccc1)COC(=O)c1ccccc1)c1ccccc1 = inactive
Oc1ccc2cc(SSc3ccc4cc(O)ccc4c3)ccc2c1 = active
O=C1OC(O)C(C(Cl)Cl)=C1Cl (stereo unspecified) = active
CCCCCCCC[N+](CCCCCCCC)(CCCCCCCC)CCCCCCCC = active
CCC(C)Nc1ccc(NC(C)CC)cc1 (stereo unspecified) = active
c1ccc2c(c1)-c1cccc3c1c-2cc1ccccc13 = inactive

---

- System: PC26
- protocolDetails: qHTS profiling for inhibitors of Plasmodium falciparum proliferation (AID 504749); also: nearly all actives have a fitted effect of over 60% in size
- setupConditions: P. falciparum in erythrocytes, SYBR Green DNA, 72 h; series mostly up to 28.7 µM
Results filed as inconclusive are left out. The source made the active and inactive calls. Calls follow the shape of the dose curve; as a rule, active = well fitted inhibition curve with a large enough effect; inconclusive = small, poorly fitted or top-dose-only effect; inactive = flat fitted curve, though single readings scatter.
Outcomes: active, inactive

CC[C@H]1OC(=O)[C@H](C)C(=O)[C@H](C)[C@@H](OC2O[C@H](C)C[C@H](N(C)C)[C@@H]2O)[C@@](C)(OC)C[C@@H](C)C(=O)[C@@H](C)C2N(CCCCn3cnc(-c4cccnc4)c3)C(=O)O[C@@]21C (stereo not given in full) = inactive
C=C(CC[C@@H](C)[C@H]1CCC2[C@]1(C)CC[C@]13C[C@@]14CCC(OC(=O)/C=C/c1ccc(O)c(OC)c1)C(C)(C)[C@@H]4CC[C@@]23C)C(C)C (stereo not given in full) = inactive
CO/N=C(/C(=O)N[C@@H]1C(=O)N2C(C(=O)O)=C(CSC(=O)c3ccco3)CSC12)c1csc(N)n1 (stereo not given in full) = inactive
Cc1cn([C@H]2CC(F)[C@@H](CO)O2)c(=O)[nH]c1=O (stereo not given in full) = inactive
C[C@H](O)[C@@H]1C(=O)N2C(C(=O)O)=C(SCCN=CN)C[C@@H]12 = inactive
CC[C@H](C)[C@H]1O[C@]2(CC[C@@H]1C)C[C@@H]1C[C@@H](C/C=C(\C)[C@H](O[C@@H]3C[C@H](OC)[C@H](O[C@@H]4C[C@H](OC)[C@@H](O)[C@H](C)O4)[C@H](C)O3)[C@@H](C)/C=C/C=C3\CO[C@@H]4[C@H](O)C(C)=C[C@@H](C(=O)O1)[C@]34O)O2 = active
CO[C@H]1C[C@@H]2CC[C@@H](C)[C@@](O)(O2)C(=O)C(=O)N2CCCC[C@H]2C(=O)O[C@H]([C@H](C)C[C@@H]2CC[C@@H](O)[C@H](OC)C2)CC(=O)[C@H](C)/C=C(\C)[C@@H](O)[C@@H](OC)C(=O)[C@H](C)C[C@H](C)/C=C/C=C/C=C/1C = active
CC(CCC(=O)O)C1CCC2C3C(=O)C[C@@H]4CC(=O)CC[C@@]4(C)C3CC(=O)[C@]12C (stereo not given in full) = inactive
CCCCCOC(=O)Nc1nc(=O)n(C2O[C@H](C)[C@@H](O)[C@@H]2O)cc1F (stereo not given in full) = inactive
CCCCC/C(C=O)=C/c1ccccc1 = inactive
O=C(O)C[CH2][Ge](=[O])[O][Ge](=[O])[CH2]CC(=O)O = inactive
Cc1ccc(Nc2ncccc2C(=O)O)cc1C = inactive
OCC1O[C@H](O[C@H]2C(O)C(O)C(O)O[C@@H]2CO)C(O)C(O)C1O (stereo not given in full) = inactive
NC(CSSCC(N)C(=O)O)C(=O)O (stereo not given) = inactive
O=C(O)CC(O)CC(O)/C=C/c1c(C2CC2)nc2ccccc2c1-c1ccc(F)cc1 (stereo not given) = inactive
